- target: T1, Goat anti-Human Kappa
- T1 construct: Positive control; also called biotinylated goat anti-human kappa light chain
- assay_comment: ELISA; positive control; note: test concentration or dose not given here
measurement_kind: optical density (OD)
Field format: number, assumed OD, no unit text.

Give a short answer stating reported optical density for 370_F02 (antibody, V domains shown, VH/VL only) VH: EVQLLESGGGLVQPGGSLRLSCAASGFTFDSYGMNWVRQAPGKGLEWVANINYNGGYTGYADSVKGRFTISRDNSKNTLYLQMNSLRAEDTAVYYCARGATWHDTHLDYWGQGTLVTVSS VL: DIQMTQSPSSLSASVGDRVTITCRASQSILSYLNWYQQKPGKAPKLLIYAVTSRHSGVPSRFSGSGSGTDFTLTISSLQPEDFATYYCQQSYDSPLTFGGGTKVEIK .
3.63

For 370_C10 (antibody, V domains shown, VH/VL only) VH: EVQLLESGGGLVQPGGSLRLSCAASGFTFDSYSMNWVRQAPGKGLEWVSNINYNSGYKGYADSVKGRFTISRDNSKNTLYLQMNSLRAEDTAVYYCARGATWHDTHLDYWGQGTLVTVSS VL: DIQMTQSPSSLSASVGDRVTITCRASQSIVSYVNWYQQKPGKAPKLLIYATTSRASGVPSRFSGSGSGTDFTLTISSLQPEDFATYYCQQSYSSPLTFGGGTKVEIK , write its optical density.
3.35

Input 366_D08 (antibody, V domains shown, VH/VL only) VH: EVQLLESGGGLVQPGGSLRLSCAASGFTFSSYGMHWVRQAPGKGLEWVSNINYNGGYKSYADSVKGRFTISRDNSKNTLYLQMNSLRAEDTAVYYCARGATWHDTHLDYWGQGTLVTVSS VL: DIQMTQSPSSLSASVGDRVTITCRASQSILSYVNWYQQKPGKAPKLVIYAATSLASGVPSRFSGSGSGTDFTLTISSLQPEDFATYYCQQSYENPLTFGGGTKVEIK , output reported optical density.
3.65
